Experiment: IUF_NPC4_neurite_length_120hr: Leibniz Research Institute for Environmental Medicine (IUF) 120-hour Neuronal Morphology Assay for Neurite Length (NPC4) (AID 2284302)
Calls of active or inactive are those of the source. The calls were made as follows: active = hit-call score of the fitted dose curve at least 0.9, where 1 is the maximum; inactive = score below 0.9.
Classes used: active, inactive

# compound, categoryLabel
measured = [
    ("CNC1(c2ccccc2Cl)CCCCC1=O (centres undefined)", "inactive"),
    ("CC1(C)[C@@H](C=C(Cl)Cl)[C@@H]1C(=O)O[C@@H](C#N)c1ccc(F)c(Oc2ccccc2)c1", "inactive"),
    ("CC1(C)C(C=C(Cl)Cl)[C@H]1C(=O)O[C@H](C#N)c1cccc(Oc2ccccc2)c1 (some centres undefined)", "inactive"),
    ("Cn1nc(C(F)(F)F)c(CS(=O)(=O)C2=NOC(C)(C)C2)c1OC(F)F", "active"),
]

----------
Assay: BSK_3C_Vis: BioMAP Diversity Plus: 3C Assay for Morphology Visualization (AID 2283025);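 also: fitted both ways so gain or loss versus DMSO counts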
Details: primary human endothelial cells (HUVEC)
The source made the active and inactive calls. Rule for the calls: active = hit-call score of the fitted dose curve at least 0.9, where 1 is the maximum; inactive = score below 0.9.
Classes used: Y = active, N = inactive

# compound, categoryLabel
measured = [
    ("O=[N+]([O-])c1ccc(Cl)cc1", "N"),
    ("Oc1cc(Cl)ccc1Cl", "N"),
    ("O=C(CCl)c1ccccc1", "Y"),
    ("Nc1ccc(-c2ccc(N)c(N)c2)cc1N", "N"),
    ("O=P1(NCCCl)OCCCN1CCCl (stereo not given)", "N"),
    ("CC(C)CCCCCCCOP(=O)(Oc1ccccc1)Oc1ccccc1", "Y"),
    ("CC1(C)[C@H](C(=O)O[C@H](C#N)c2cccc(Oc3ccccc3)c2)[C@@H]1C=C(Br)Br", "N"),
    ("O=c1c2ccccc2c(=O)c2c1cc(Cl)c1[nH]c3c([nH]c12)c(Cl)cc1c(=O)c2ccccc2c(=O)c13", "N"),
    ("N#CCCCCC#N", "N"),
    ("Cc1ccc(OP(=O)(Oc2ccc(C)cc2)Oc2ccc(C)cc2)cc1 (tested in a mixture with another compound)", "Y"),
]

----------
Biological target: Heat shock factor protein 1 (Homo sapiens) (UniProt Q00613)
Sequence (Q00613 whole entry, looked up): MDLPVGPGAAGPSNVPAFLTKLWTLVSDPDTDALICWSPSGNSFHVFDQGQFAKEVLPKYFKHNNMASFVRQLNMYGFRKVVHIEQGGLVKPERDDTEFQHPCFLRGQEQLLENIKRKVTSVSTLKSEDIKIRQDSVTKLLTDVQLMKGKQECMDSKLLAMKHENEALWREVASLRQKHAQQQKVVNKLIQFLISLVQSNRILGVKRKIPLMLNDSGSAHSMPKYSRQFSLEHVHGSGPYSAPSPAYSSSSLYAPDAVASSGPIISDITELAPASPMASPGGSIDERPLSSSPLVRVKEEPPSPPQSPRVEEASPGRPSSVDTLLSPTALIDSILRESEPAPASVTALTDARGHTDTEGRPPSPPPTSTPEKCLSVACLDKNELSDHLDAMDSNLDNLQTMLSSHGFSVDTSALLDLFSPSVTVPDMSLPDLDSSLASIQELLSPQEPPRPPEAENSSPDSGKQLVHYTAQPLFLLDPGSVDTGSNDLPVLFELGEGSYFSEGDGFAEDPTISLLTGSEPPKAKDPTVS
Experiment: ATG_HSE_CIS: Attagene CIS-FACTORIAL HepG2 Assay for human Heat Shock Transcription Factor 1 (HSE) (AID 2282953)
Conditions: HepG2 HSE cis-reporter, Attagene RNA transcription; actives raise or lower the signal
Active and inactive are the calls of the source. How the source made its calls: active means hit-call score of the fitted dose curve at least 0.9, where 1 is the maximum; inactive means score below 0.9.
Classes used: 1.0 for active, 0.0 for inactive

# compound, categoryLabel
measured = [
    ("CCC(C)c1cc(C(C)(C)C)cc(-n2nc3ccccc3n2)c1O (stereo not given)", 0.0),
    ("Cc1ccccc1CCl", 0.0),
    ("C[C@]12CCC(=O)C(O)=C1CC[C@@H]1[C@@H]2CC[C@]2(C)C(=O)CC[C@@H]12", 0.0),
    ("Cc1cc(C)c(C2=C(OC(=O)CC(C)(C)C)C3(CCCC3)OC2=O)c(C)c1", 1.0),
    ("CC(C)C#N", 0.0),
    ("CCc1cc(C)cc(CC)c1-c1c(OC(=O)C(C)(C)C)n2n(c1=O)CCOCC2", 0.0),
    ("CC1CCCC1.[C-]#[O+].[C-]#[O+].[C-]#[O+].[Mn]", 0.0),
    ("CC(C)(O)C#N", 0.0),
    ("COc1cc(OC)nc(Oc2cccc(Oc3nc(OC)cc(OC)n3)c2C(=O)O)n1", 0.0),
    ("CC1OC(C)OC(C)O1 (stereo not given)", 0.0),
    ("CC(Cc1ccc(C(C)(C)C)cc1)CN1C[C@@H](C)O[C@@H](C)C1 (stereo not given in full)", 0.0),
    ("O=P(O)(Oc1ccccc1)Oc1ccccc1", 0.0),
    ("c1ccc(Nc2ccc3ccccc3c2)cc1", 0.0),
    ("O=S(=O)(c1ccccc1)c1ccccc1", 0.0),
    ("C=C(Cl)CCl", 0.0),
    ("Cl/C=C\\CCl", 0.0),
    ("SCc1ccco1", 0.0),
    ("CCCCOP(=O)(O)OCCCC", 0.0),
    ("O=C(NC(=O)c1c(F)cccc1F)Nc1ccc(Oc2ccc(C(F)(F)F)cc2Cl)cc1F", 0.0),
    ("CC(=O)c1cc2c(cc1C)C(C)(C)C(C)CC2(C)C (stereo not given)", 1.0),
]

----------
Molecular target: Cellular tumor antigen p53 (Homo sapiens)
Assay: TOX21_p53_BLA_p2_ratio: Tox21 HCT-116 p53 Agonism Beta-lactamase Assay, Ratio, Phase 2 (AID 2283592)
Results filed as inconclusive are left out. Active and inactive are the calls of the source. Rule for the calls: active = hit-call score of the fitted dose curve at least 0.9, where 1 is the maximum; inconclusive = response in the unintended direction; inactive = score below 0.9.
Classes used: active, inactive

# compound, categoryLabel
rows = [
    ("BrC(Br)C(Br)(Br)Br", "inactive"),
    ("Oc1ccc(C2(c3ccc(O)cc3)CCCCC2)cc1", "active"),
    ("NCC1(CC(=O)O)CCCCC1", "inactive"),
    ("O=c1[nH]oc2c1CCNC2", "inactive"),
    ("CCCC(C)(COC(N)=O)COC(=O)NC(C)C (stereo unspecified)", "inactive"),
    ("NC1=NC(=O)C(c2ccccc2)O1 (stereo unspecified)", "inactive"),
    ("CC[C@H]1C[C@H]2[C@@H]3CCC4=CC(=O)CC[C@@H]4[C@H]3CC[C@]2(C)[C@H]1O", "inactive"),
    ("CCCOC(=O)c1ccccc1C(=O)OCCC", "inactive"),
    ("CCC/C=C/C=C/C(=O)O[C@H]1/C(=C/C(=O)OC)C[C@H]2C[C@H]([C@@H](C)O)OC(=O)C[C@H](O)C[C@@H]3C[C@H](OC(C)=O)C(C)(C)[C@](O)(C[C@@H]4C/C(=C/C(=O)OC)C[C@H](/C=C/C(C)(C)[C@]1(O)O2)O4)O3", "inactive"),
    ("Clc1cccc(N2CCNCC2)c1", "inactive"),
    ("S=C=Nc1cccc2ccccc12", "active"),
    ("CC(C)N(C(=O)SCC(Cl)=CCl)C(C)C", "inactive"),
    ("CCOC(=O)C(Cl)C(C)=O (stereo unspecified)", "inactive"),
    ("CCOP(=S)(OCC)Oc1cnc2ccccc2n1", "inactive"),
    ("CCC(=O)O[C@H]1[C@@H](N2CCCCC2)C[C@H]2[C@@H]3CC[C@H]4C[C@H](OC(C)=O)[C@@H](N5CCCCC5)C[C@]4(C)[C@H]3CC[C@@]21C", "inactive"),
    ("CCCC[N+](CCCC)(CCCC)CCCC", "inactive"),
    ("CN(C)S(=O)(=O)N(SC(F)(Cl)Cl)c1ccccc1", "active"),
    ("OC(O)C(Cl)(Cl)Cl", "inactive"),
    ("CCC(C)Cl (stereo unspecified)", "inactive"),
    ("O=C(Nc1ccccc1)N(Cc1ccc(Cl)cc1)C1CCCC1", "inactive"),
    ("CCOC(=O)C1OC1(C)c1ccccc1 (stereo unspecified)", "inactive"),
    ("CCSCc1ccccc1OC(=O)NC", "inactive"),
    ("O=[N+]([O-])c1cccc(O)c1", "inactive"),
    ("CNc1ccc(C(=O)CC(O)CCC(C)C2OC(=O)CC(O)CC(=O)CC(O)CC(O)CC(O)CC(O)CC3(O)CC(O)C(C(=O)OC)C(CC(O[C@@H]4O[C@H](C)[C@@H](O)[C@H](N)[C@@H]4O)/C=C/C=C/C=C/C=C/C=C/C=C/C=C/C2C)O3)cc1 (stereo partly specified) (tested in a mixture with another compound)", "active"),
    ("N#CCCC#N", "inactive"),
    ("O=c1c2ccccc2c(=O)c2c1cc(Cl)c1[nH]c3c([nH]c12)c(Cl)cc1c(=O)c2ccccc2c(=O)c13", "inactive"),
    ("Clc1ccc(CCC(Cn2ccnc2)Sc2c(Cl)cccc2Cl)cc1 (stereo unspecified)", "inactive"),
    ("C=CCOCC1CO1 (stereo unspecified)", "inactive"),
    ("Oc1cc(Cl)c(Cl)c(Cl)c1", "active"),
    ("O=c1oc2ccccc2c(O)c1Cc1c(O)c2ccccc2oc1=O", "active"),
    ("CCC(=O)O[C@](Cc1ccccc1)(c1ccccc1)[C@H](C)CN(C)C", "inactive"),
    ("Oc1cc(Cl)cc(Cl)c1", "active"),
    ("CCOP(=O)(OCC)OCC", "inactive"),
    ("C=CCN1C[C@H](C)N([C@H](c2ccc(C(=O)N(CC)CC)cc2)c2cccc(OC)c2)C[C@H]1C", "inactive"),
    ("CN1CCCC(=C(c2cccs2)c2cccs2)C1", "inactive"),
    ("CCCC(=O)Cl", "inactive"),
    ("ClCC1CO1 (stereo unspecified)", "inactive"),
    ("COc1ccc(CN2CCNCC2)c(OC)c1OC", "inactive"),
    ("O=CC(Br)(Br)Br", "active"),
    ("C=CCOC(C)=O", "inactive"),
    ("CC(=O)OC1CN2CCC1CC2 (stereo unspecified)", "inactive"),
]
